target: Wee1 (Homo sapiens (Human), UniProt P30291); assay: In vitro enzymatic inhibitory activity (33P-ATP filter-binding kinase assay, MBP substrate); assay type: biochemical; conditions: Wee-1 150 nM, MBP 20 μM
Sequence (P30291 whole entry): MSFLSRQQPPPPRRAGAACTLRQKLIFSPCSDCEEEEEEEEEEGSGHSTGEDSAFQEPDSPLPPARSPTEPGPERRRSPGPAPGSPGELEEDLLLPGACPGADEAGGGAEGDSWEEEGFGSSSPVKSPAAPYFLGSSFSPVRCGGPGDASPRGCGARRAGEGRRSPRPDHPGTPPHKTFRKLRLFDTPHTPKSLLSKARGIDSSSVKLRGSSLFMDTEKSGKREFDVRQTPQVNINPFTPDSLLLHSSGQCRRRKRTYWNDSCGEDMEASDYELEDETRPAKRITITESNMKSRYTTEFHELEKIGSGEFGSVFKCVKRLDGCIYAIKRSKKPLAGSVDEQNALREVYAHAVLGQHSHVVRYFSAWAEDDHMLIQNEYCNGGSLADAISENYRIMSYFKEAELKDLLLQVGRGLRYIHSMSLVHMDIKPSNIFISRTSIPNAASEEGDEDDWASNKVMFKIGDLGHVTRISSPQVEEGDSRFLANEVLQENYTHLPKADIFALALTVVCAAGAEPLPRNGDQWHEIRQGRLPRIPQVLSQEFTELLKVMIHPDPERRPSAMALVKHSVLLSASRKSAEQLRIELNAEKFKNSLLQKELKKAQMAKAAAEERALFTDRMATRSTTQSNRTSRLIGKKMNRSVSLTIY
property.label: IC50 (nM)

Would you please look over these solved cases?
C=CCn1c(=O)c2cnc(Nc3ccc(N4CCC5(CCN(C)CC5)CC4)cc3)nc2n1-c1ccccc1 = 67.4
C=CCn1c(=O)c2cnc(Nc3ccc(N4CCC5(CCN(C)CC5)CC4)cc3)nc2n1-c1ccc(F)cn1 = 13.2

P = C=CCn1c(=O)c2cnc(Nc3ccc(N4CCC5(CCN(C)CC5)CC4)cc3)nc2n1-c1cccc(C2(O)COC2)n1
Q = C=CCn1c(=O)c2cnc(Nc3ccc(N4CCC5(CCN(C)CC5)CC4)cc3)nc2n1-c1ccc(F)c(C(C)(C)O)n1
Task: Between the entries labelled P and Q , which has a larger IC50 value on record? Answer = label.
Result: Q

----------
experiment: Tissue distribution (PK) in BALB/c nude mice bearing human colon cancer LoVo xenografts; format: in vivo; conditions: mouse, Colon, LoVo xenograft mice, oral 40 mg/kg twice a day for three weeks, after last administration
property.label: AUC(0-t) (µM·h)

P = C=CCn1c(=O)c2cnc(Nc3ccc(N4CCC5(CCN(C(C)=O)CC5)CC4)cc3)nc2n1-c1cccc(C(C)(C)O)n1
Q = C=CCn1c(=O)c2cnc(Nc3ccc(N4CCN(C)CC4)cc3)nc2n1-c1cccc(C(C)(C)O)n1 [AZD1775, reference compound]
Task: Task for the reader: decide whether P or Q has the larger AUC(0-t). Indicate your choice by writing its label.
Result: P
(P: 402 µM·h, Q: 225 µM·h)

----------
assay: Tissue distribution (PK) in BALB/c nude mice bearing human colon cancer LoVo xenografts; format: in vivo; settings: mouse, Colon, LoVo xenograft mice, oral 40 mg/kg twice a day for three weeks, after last administration
property.label: Cmax (µM)

I = C=CCn1c(=O)c2cnc(Nc3ccc(N4CCC5(CCN(C(C)=O)CC5)CC4)cc3)nc2n1-c1cccc(C(C)(C)O)n1
II = C=CCn1c(=O)c2cnc(Nc3ccc(N4CCN(C)CC4)cc3)nc2n1-c1cccc(C(C)(C)O)n1 [AZD1775, reference compound]
Task: When I and II are compared, which has the higher number for Cmax? Write down the label attached to your selection.
Result: II
(II: 238 µM, I: 135 µM)

----------
experiment: Tissue distribution (PK) in BALB/c nude mice bearing human colon cancer LoVo xenografts; assay type: in vivo; conditions: mouse, Brain, LoVo xenograft mice, oral 40 mg/kg twice a day for three weeks, after last administration
property.label: Tmax (min)
Expressed in min, but write only the number.

Task: Would you kindly share the measured Tmax for C=CCn1c(=O)c2cnc(Nc3ccc(N4CCC5(CCN(C(C)=O)CC5)CC4)cc3)nc2n1-c1cccc(C(C)(C)O)n1 ?
Result: 30

----------
Assay: Pharmacokinetic evaluation in BALB/c mice after intravenous and oral administration
Assay type: in vivo
Details: mouse, plasma; BALB/c mice (female), single intravenous injection and oral administration; read-out: Concentration integral AUC
Experimental: Experimental objective: pharmacokinetics evaluation of the compound in BALB/c nude mice. The rodent pharmacological characteristics of the compound after intravenous administration and oral administration were tested by a standard protocol, the candidate compound in the experiment was formulated into a clear solution, and the mice were administered by a single intravenous injection and oral administration. […]
property.label: AUC (µM·h)

C=CCn1c(=O)c2cnc(Nc3ccc(N4CCC5(CCN(C)CC5)CC4)cc3)nc2n1-c1cccc(C(=O)N(C)C)n1 = 1.73

I = C=CCn1c(=O)c2cnc(Nc3ccc(N4CCC5(CCN(C)CC5)CC4)cc3)nc2n1-c1cccc(C2(F)COC2)n1
II = C=CCn1c(=O)c2cnc(Nc3ccc(N4CCC5(CCN(C)CC5)CC4)cc3)nc2n1-c1cccc(C(C)(C)O)n1
Task: Task for the reader: decide whether I or II has the larger AUC. Mark your answer with the label of the selected entry.
Result: I

----------
biological target: Wee1 (Homo sapiens (Human), UniProt P30291); assay: In vitro enzymatic inhibitory activity (33P-ATP filter-binding kinase assay, MBP substrate); assay type: biochemical; conditions: Wee-1 150 nM, MBP 20 μM
property.label: IC50 (nM)

C=CCn1c(=O)c2cnc(Nc3ccc(N4CCC5(CCN(C)CC5)CC4)cc3)nc2n1-c1cccc(N2CCNC2=O)n1 = 73
C=CCn1c(=O)c2cnc(Nc3ccc(N4CCC5(CCN(C)CC5)CC4)cc3)nc2n1-c1ccc(Cl)cn1 = 14.1
C=CCn1c(=O)c2cnc(Nc3ccc(N4CCC5(CCN(CCF)CC5)CC4)cc3)nc2n1-c1cccc(C(C)(C)O)n1 = 14.8
C=CCn1c(=O)c2cnc(Nc3ccc(N4CCC5(CCN(C)CC5)CC4)cc3)nc2n1-c1cccc(O[C@@H]2CCOC2)n1 = 71
C=CCn1c(=O)c2cnc(Nc3ccc(N4CCC5(CCN(C)CC5)CC4)cc3)nc2n1-c1cccc(N2CCOC2=O)n1 = 47

I = C=CCn1c(=O)c2cnc(Nc3ccc(N4CCC5(CCN(C)CC5)CC4)cc3)nc2n1-c1cccc(C(N)=O)c1
II = C=CCn1c(=O)c2cnc(Nc3ccc(N4CCC5(CCN(C)CC5)CC4)cc3)nc2n1-c1ccc(Cl)cc1
III = C=CCn1c(=O)c2cnc(Nc3ccc(N4CCC5(CCN(C)CC5)CC4)cc3)nc2n1-c1cccc(C(C)C)n1
Task: Output the entries ranked by IC50 from maximum down to minimum. List the labels in the requested order.
Result: I, II, III

----------
assay: Tissue distribution (PK) in BALB/c nude mice bearing human colon cancer LoVo xenografts; assay type: in vivo; conditions: mouse, lung, LoVo xenograft mice, oral 40 mg/kg twice a day for three weeks, after last administration
property.label: Tmax (h)

P = C=CCn1c(=O)c2cnc(Nc3ccc(N4CCC5(CCN(C(C)=O)CC5)CC4)cc3)nc2n1-c1cccc(C(C)(C)O)n1
Q = C=CCn1c(=O)c2cnc(Nc3ccc(N4CCN(C)CC4)cc3)nc2n1-c1cccc(C(C)(C)O)n1 [AZD1775, reference compound]
Task: Between P and Q , whose recorded Tmax is greater? Refer to your chosen entry by its label in the reply.
Result: P
(P: 2 h, Q: 0.5 h)

----------
experiment: Tissue distribution (PK) in BALB/c nude mice bearing human colon cancer LoVo xenografts; assay type: in vivo; details: mouse, liver, LoVo xenograft mice, oral 40 mg/kg twice a day for three weeks, after last administration
property.label: Cmax (µM)

A = C=CCn1c(=O)c2cnc(Nc3ccc(N4CCC5(CCN(C(C)=O)CC5)CC4)cc3)nc2n1-c1cccc(C(C)(C)O)n1
B = C=CCn1c(=O)c2cnc(Nc3ccc(N4CCN(C)CC4)cc3)nc2n1-c1cccc(C(C)(C)O)n1 [AZD1775, reference compound]
Task: Hi team, can someone confirm which has the larger Cmax: A or B ? Thanks. Response format: the label of the selected entry.
Result: A
(A: 67.7 µM, B: 38.1 µM)

----------
assay: Tissue distribution (PK) in BALB/c nude mice bearing human colon cancer LoVo xenografts; format: in vivo; conditions: mouse, Brain, LoVo xenograft mice, oral 40 mg/kg twice a day for three weeks, after last administration
property.label: Cmax (nM)
Enter your answer as a number in nM; do not include the unit.

Task: Any idea what Cmax was measured for C=CCn1c(=O)c2cnc(Nc3ccc(N4CCC5(CCN(C(C)=O)CC5)CC4)cc3)nc2n1-c1cccc(C(C)(C)O)n1 ?
Result: 959

----------
test: Tissue distribution (PK) in BALB/c nude mice bearing human colon cancer LoVo xenografts; format: in vivo; conditions: mouse, lung, LoVo xenograft mice, oral 40 mg/kg twice a day for three weeks, after last administration
property.label: Cmax (µM)

C=CCn1c(=O)c2cnc(Nc3ccc(N4CCN(C)CC4)cc3)nc2n1-c1cccc(C(C)(C)O)n1 [AZD1775, reference compound] = 17.2
C=CCn1c(=O)c2cnc(Nc3ccc(N4CCC5(CCN(C(C)=O)CC5)CC4)cc3)nc2n1-c1cccc(C(C)(C)O)n1 = 14.6

----------
assay: Pharmacokinetic evaluation in BALB/c mice after intravenous and oral administration; assay type: in vivo; settings: mouse, plasma; BALB/c mice (female), single intravenous injection and oral administration; read-out: Half-life T1/2 (converted)
property.label: half-life (h)

C=CCn1c(=O)c2cnc(Nc3ccc(N4CCC5(CCN(C)CC5)CC4)cc3)nc2n1-c1cccc(C2(F)COC2)n1 [Embodiment 43] = 1.81
C=CCn1c(=O)c2cnc(Nc3ccc(N4CCC5(CCN(C)CC5)CC4)cc3)nc2n1-c1cccc(C(C)(C)O)n1 [Embodiment 29] = 1.49

P = C=CCn1c(=O)c2cnc(Nc3ccc(N4CCC5(CCN(C)CC5)CC4)cc3)nc2n1-c1cccc(C(=O)N(C)C)n1 [Embodiment 15]
Q = C=CCn1c(=O)c2cnc(Nc3ccc(N4CCN(C)CC4)cc3)nc2n1-c1cccc(C(C)(C)O)n1 [AZD1775, reference compound]
Task: Hi there! Just curious which has the higher half-life between P and Q . Reply with the label of the item you choose.
Result: P
